Target: purified human PRX3 (Homo sapiens, UniProt P30048)
Construct: made in house
Sequence (P30048 62-256): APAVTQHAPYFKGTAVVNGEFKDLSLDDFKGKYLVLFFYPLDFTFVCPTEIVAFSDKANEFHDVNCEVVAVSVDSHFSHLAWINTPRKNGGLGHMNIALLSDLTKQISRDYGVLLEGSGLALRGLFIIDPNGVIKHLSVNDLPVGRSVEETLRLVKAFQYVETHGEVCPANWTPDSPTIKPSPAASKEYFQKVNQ
Assay: Biochemical PRX3 Inhibition Assay (non-reducible crosslink by SDS PAGE + single adduct by MALDI-TOF MS)
Details: 100 μM PRX3 with TRX2/thioredoxin reductase/NADPH system and hydrogen peroxide, 1-2 hr at 37° C.
attribute_measured: PRX3 Inhibition (Crosslink + Mono-adduct)

Answered cases to consult:
C=C(NC(=O)c1csc(-c2ccc(NC(=O)CCCCCBr)cc2)n1)C(=O)NC(=C)C(=O)OC; ++ (50-90%)
C=C(NC(=O)c1csc(-c2ccc(CNC(=O)COCCOC)cc2)n1)C(=O)NC(=C)C(=O)OC; +++ (>90%)
C=C(NC(=O)c1csc(-c2ccc(CNC(=O)C3CCOCC3)cc2)n1)C(=O)NC(=C)C(=O)OC; +++ (>90%)
C=C(NC(=O)c1csc(N2CCOCC2)n1)C(=O)NC(=C)C(=O)OC; +++ (>90%)

Turning now to a further record.
Enquiry: Tell me the measured PRX3 Inhibition (Crosslink + Mono-adduct) of C=C(NC(=O)c1csc(-c2ccc(COC(=O)NCc3ccccc3)cc2)n1)C(=O)NC(=C)C(=O)OC , please.
Return: + (5-50%)
